Source of measurements: ChEMBL document CHEMBL6120977

Assay: Biodistribution in male ddY mouse heart administered intravenously and measured at 60 mins postinjection by gamma counter analysis
Format: ADME, organism-based
Settings: in vivo, iv, 1 h
measured attribute: Drug uptake (% ID/g)
Numbers only; they are read as % ID/g.

Examples with their reported Drug uptake follow.
>  <entry smiles>
Cc1ccc(-n2nccn2)c(C(=O)N2CCCN(c3nc4cc([18F])ccc4s3)C[C@@H]2C)c1

>  <Drug uptake [% ID/g]>
0.7

$$$$
>  <entry smiles>
C[C@H]1CN(c2nc3ccc(F)cc3s2)CCCN1C(=O)c1cc([18F])ccc1-n1nccn1

>  <Drug uptake [% ID/g]>
0.42

$$$$
>  <entry smiles>
Cc1ccc(-n2nccn2)c(C(=O)N2CCCN(c3nc4ccc([18F])cc4s3)C[C@@H]2C)c1

>  <Drug uptake [% ID/g]>
0.43

$$$$

Shift focus to the following entry.
Qu. For the compound "C[C@H]1CN(c2nc3ccccc3s2)CCCN1C(=O)c1cc([18F])ccc1-n1nccn1" , what Drug uptake is on record?
Ans. 0.54
